- tested.on: CCAAT/enhancer-binding protein beta (Homo sapiens)
- assay.text: ATG_C_EBP_CIS: Attagene CIS-FACTORIAL HepG2 Assay for human CCAAT/Enhancer Binding Protein (C/EBP) beta (AID 2282927)
- experimental.conditions: HepG2 Attagene cis-factorial transcription factor reporter; actives raise or lower the signal
- Experimental: ATG_CIS is a cell-based, multiplexed-readout assay that uses HepG2, a human liver cell line, with measurements taken at 24 hours after chemical dosing in a 24-well plate.ATG_C_EBP_CIS is one of 52 assay component(s) measured or calculated from the ATG_CIS assay. […] This assay endpoint, ATG_C_EBP_CIS, was analyzed with bidirectional fitting relative to DMSO as the negative control and baseline of activity. […]
Activity calls are given as the source filed them. Rule for the calls: active = hit-call score of the fitted dose curve at least 0.9, where 1 is the maximum; inactive = score below 0.9.
# valid calls are active, inactive; nothing else

Below are worked cases with known answers.
[
  {
    "molecule": "CCCCCCCCCCCCCCCC(=O)OC[C@H](O)[C@H]1OC(=O)C(O)=C1O",
    "discrete.label": "active"
  },
  {
    "molecule": "Cc1ccccc1C=O",
    "discrete.label": "inactive"
  },
  {
    "molecule": "CCCCO",
    "discrete.label": "inactive"
  },
  {
    "molecule": "CC(CCO)CCc1ccccc1 (configuration not stated)",
    "discrete.label": "inactive"
  },
  {
    "molecule": "CCCCCCCCCCCCCCCC(=O)O",
    "discrete.label": "inactive"
  },
  {
    "molecule": "O=C(O)C[C@H](O)C[C@H](O)/C=C/c1c(C2CC2)nc2ccccc2c1-c1ccc(F)cc1",
    "discrete.label": "inactive"
  },
  {
    "molecule": "Cc1ccc(C(=O)c2cc(O)c(O)c([N+](=O)[O-])c2)cc1",
    "discrete.label": "inactive"
  },
  {
    "molecule": "O=CCCc1ccccc1",
    "discrete.label": "inactive"
  },
  {
    "molecule": "CC(C)(C)c1n[nH]c(=S)n(N)c1=O",
    "discrete.label": "inactive"
  },
  {
    "molecule": "O=C1O[C@@H]2[C@@H](O)[C@H](O)O[C@@H]2[C@H]1O",
    "discrete.label": "inactive"
  }
]

Turning to the following molecule.
State the result this test recorded for O=C(Nc1ccccc1)c1cc([N+](=O)[O-])ccc1Cl . inactive

----------
- assay.text: ATG_NRF2_ARE_CIS: Attagene CIS-FACTORIAL HepG2 Assay for human Nuclear Factor Erythroid 2 Related Factor 2 (NFR2) response to Antioxidant Response Elements (ARE) (AID 2282992)
- experimental.conditions: HepG2 Attagene ARE/NRF2 reporter, transcription factor activity; actives raise or lower the signal
Calls of active or inactive are those of the source. The calls were made as follows: active = hit-call score of the fitted dose curve at least 0.9, where 1 is the maximum; inactive = score below 0.9.
Give your call using only these classes: active, inactive

[
  {
    "molecule": "O=C1NC(=O)c2ccccc21",
    "discrete.label": "inactive"
  },
  {
    "molecule": "Cc1ccc(C(=O)c2cc(O)c(O)c([N+](=O)[O-])c2)cc1",
    "discrete.label": "inactive"
  },
  {
    "molecule": "CNC[C@H](O)c1cccc(O)c1",
    "discrete.label": "inactive"
  },
  {
    "molecule": "C=C(C)C1CCC(C)CC1O (configuration not stated)",
    "discrete.label": "inactive"
  },
  {
    "molecule": "CSc1nc(NC2CC2)nc(NC(C)(C)C)n1",
    "discrete.label": "active"
  },
  {
    "molecule": "NCCOCCO",
    "discrete.label": "inactive"
  },
  {
    "molecule": "CCCC(=O)C(C)=O",
    "discrete.label": "inactive"
  },
  {
    "molecule": "CCn1c2ccccc2c2cc(N)ccc21",
    "discrete.label": "active"
  },
  {
    "molecule": "NC(=O)Nc1ccc(Cl)cc1",
    "discrete.label": "inactive"
  },
  {
    "molecule": "Cc1ccccc1C=O",
    "discrete.label": "inactive"
  }
]

Identify the outcome logged in this assay for the molecule shown: NCCNCCN inactive

Could you check what this test reported for CNC(=O)Oc1ccc2c(c1)[C@]1(C)CCN(C)[C@@H]1N2C ? active
